- Test system: kochia (Bassia scoparia)
- assay_name: Test A preemergence soil spray, visual injury rating 0-100
- Format: in vivo
- study_conditions: 62 g ai/ha, 10 days, 0 = no effect, 100 = complete control
- Source text: […]
Parameter Kochia plant response rating (0-100): see the listing below.
Lab note: jot down the number only; don't add units.

Task: Read off the recorded Kochia plant response rating (0-100) for C=CC1(C(=O)NC2CC=C(C(=O)OC)C2)CN(c2cc(F)cc(F)c2)C(=O)O1 (racemic)
Result: 40

----------
Catalogue of Ragweed plant response rating (0 to 100 scale) values
- System: ragweed (common ragweed, Ambrosia artemisiifolia)
- assay_name: Test A postemergence application, visual injury rating 0-100
- Format: in vivo
- study_conditions: Postemergence, 16 g ai/ha, greenhouse 10 days; 0 no effect, 100 complete control
Please reply with the number alone, leaving off any unit.

CSCCOC(=O)C1=CCC(NC(=O)C2(C)CN(c3cc(F)cc(Cl)c3)C(=O)O2)C1 (centres unmarked) [Compound 135]	40
COC(=O)C1C=CC(NC(=O)C2(C(F)(F)F)CN(c3cc(F)c(F)c(F)c3)C(=O)O2)C1 (mixture of isomers) [Compound 162]	20
CC1(C(=O)NC2C=CC(C(=O)O)C2)CN(c2cc(F)cc(F)c2)C(=O)O1 (centres unmarked) [Compound 138]	60
C=CC1(C(=O)NC2COC(C(=O)OC)C2)CN(c2cc(F)cc(F)c2)C(=O)O1 (centres unmarked) [Compound 170]	0

Task: Look up and state reported Ragweed plant response rating (0 to 100 scale) for C=CC1(C(=O)NC2CC(C(=O)OC)C2)CN(c2cc(F)cc(F)c2)C(=O)O1 (centres unmarked) [Compound 174]
Result: 0

----------
- Test system: kochia (Bassia scoparia)
- assay_name: Test A preemergence soil spray, visual injury rating 0-100
- Assay type: in vivo
- study_conditions: 62 g ai/ha, 10 days, 0 = no effect, 100 = complete control
Binary label based on Kochia plant response rating (0-100) with cut-off 90: below gives met, not below gives not met.

// known answers, use as guide
CC1(C(=O)NC2CC=C(C(=O)NS(=O)(=O)c3ccccc3)C2)CN(c2cc(F)cc(F)c2)C(=O)O1 (racemic) [Compound 104]	met
CCOC(=O)C1=CCC(NC(=O)C2(C)CN(c3cc(F)cc(Cl)c3)C(=O)O2)C1 (centres unmarked) [Compound 133]	met
CC(C)OC(=O)C1=CCC(NC(=O)C2(C)CN(c3cc(Cl)cc(Cl)c3)C(=O)O2)C1 (centres unmarked) [Compound 105]	met
C=CC1(C(=O)NC2C=CC(C(=O)OC)C2)CN(c2cc(F)cc(F)c2)C(=O)O1 (single isomer, unassigned) [Compound 167]	not met
CC(C)COC(=O)C1=CCC(NC(=O)C2(C)CN(c3cc(F)cc(Cl)c3)C(=O)O2)C1 (centres unmarked) [Compound 143]	met

# next compound below
Task: Consider the compound CC1(C(=O)NC2CC(C(=O)O)C2)CN(c2cc(F)cc(F)c2)C(=O)O1 (centres unmarked) [Compound 119] . Is its Kochia plant response rating (0-100) strictly less than 90?
Result: met
